- experimental target: xanthine oxidase (Homo sapiens)
- Sequence (P47989 whole entry, species assumed): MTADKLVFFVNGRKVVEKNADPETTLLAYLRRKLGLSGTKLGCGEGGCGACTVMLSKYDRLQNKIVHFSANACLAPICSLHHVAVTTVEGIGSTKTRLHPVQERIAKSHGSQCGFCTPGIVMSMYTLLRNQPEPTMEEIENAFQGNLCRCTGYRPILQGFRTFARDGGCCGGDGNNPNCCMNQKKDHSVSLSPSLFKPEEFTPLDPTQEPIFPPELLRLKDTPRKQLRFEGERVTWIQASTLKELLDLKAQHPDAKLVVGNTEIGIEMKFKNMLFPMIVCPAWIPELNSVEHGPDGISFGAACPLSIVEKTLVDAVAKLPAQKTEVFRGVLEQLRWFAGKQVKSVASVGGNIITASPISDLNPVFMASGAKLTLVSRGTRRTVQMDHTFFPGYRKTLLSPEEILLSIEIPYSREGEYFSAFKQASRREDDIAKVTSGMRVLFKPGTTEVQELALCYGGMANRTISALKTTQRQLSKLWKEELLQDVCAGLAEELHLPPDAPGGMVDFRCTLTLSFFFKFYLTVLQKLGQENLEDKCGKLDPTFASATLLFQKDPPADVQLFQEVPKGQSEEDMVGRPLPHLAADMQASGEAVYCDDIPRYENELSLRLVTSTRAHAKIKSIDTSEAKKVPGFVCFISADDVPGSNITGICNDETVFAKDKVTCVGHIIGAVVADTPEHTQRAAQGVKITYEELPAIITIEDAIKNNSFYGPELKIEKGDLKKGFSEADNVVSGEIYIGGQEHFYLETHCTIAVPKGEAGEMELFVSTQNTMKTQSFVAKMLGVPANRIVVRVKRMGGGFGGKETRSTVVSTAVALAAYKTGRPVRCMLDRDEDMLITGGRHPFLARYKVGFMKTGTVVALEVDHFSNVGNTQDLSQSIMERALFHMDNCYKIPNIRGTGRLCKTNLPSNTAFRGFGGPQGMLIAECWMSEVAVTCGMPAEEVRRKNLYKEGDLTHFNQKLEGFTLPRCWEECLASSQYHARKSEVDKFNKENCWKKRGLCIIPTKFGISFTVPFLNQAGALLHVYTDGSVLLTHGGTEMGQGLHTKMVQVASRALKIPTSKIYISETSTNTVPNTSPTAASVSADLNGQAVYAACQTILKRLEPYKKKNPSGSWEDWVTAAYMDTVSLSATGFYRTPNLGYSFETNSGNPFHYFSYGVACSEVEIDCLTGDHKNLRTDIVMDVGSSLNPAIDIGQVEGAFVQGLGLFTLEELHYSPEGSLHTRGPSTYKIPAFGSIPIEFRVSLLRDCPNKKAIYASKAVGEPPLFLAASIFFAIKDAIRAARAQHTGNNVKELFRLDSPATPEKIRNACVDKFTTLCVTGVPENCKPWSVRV
endpoint name: pKi
Entry type: numeric. Quantity: pKi, the -log10 of concentration in molar units.

Input line: Write pKi of c1ccc([I+]c2ccccc2)cc1 [DPI, Diphenyliodonium, reference compound] ; system used: xanthine oxidase (Homo sapiens)
Output line: 7.30
